The values you see were collected from PubChem BioAssay (NCI).

System: MDA-MB-468 breast
Assay: NCI-60 one-dose screen, 48 h (100 = growth as untreated, 0 = no growth, -100 = all killed)
Details: 10 µM unless noted
Description: Growth inhibition of the MDA-MB-468 human Breast tumor cell line is measured as a screen for anti-cancer activity. Cells are grown in 96 well plates and exposed to the test compound for 48 hours. Compounds are tested at a single concentration, which is 10^-5 M for most compounds. The reported endpoint is percent growth (GI% or GIPRCNT), where numbers from 0 - 100% represent growth inhibition, and numbers from -100% - 0 represent cell death. […]
About 83,000 compounds went through this panel and 20% of them were active in at least one assay; those are over-represented in the sample as a whole.
For each entry below, report its growth value.
Enter your answer as a number in %; do not include the unit.

Ask: What measured growth goes with O=C(c1cccc(F)c1)n1ccc2cc(NC(=S)Nc3cccnc3)ccc21 ?
Result: 91.9

Ask: Quick one: growth for CCN(CCO)CCNc1ccc(C)c2sc3cc(OC)ccc3c(=O)c12 ?
Result: 87.7

Ask: Tell me the measured growth of COc1ccc(C2=NNC(c3sc(Cl)nc3Cl)C2)cc1 (centres undefined) , please.
Result: 70

Ask: // returns reported growth for input Cc1ccc(-n2nc3c(c(C#N)c2=O)CC(c2ccccc2Cl)C([N+](=O)[O-])=C3O)cc1 (centres undefined)
Result: 114

Ask: Any idea what its growth is? The molecule is C=C1C(=O)O[C@H]2[C@H]1CC/C(CNC(=O)/C1=C/CC[C@@]3(C)O[C@H]3[C@H]3OC(=O)C(=C)[C@@H]3CC1)=C\CC[C@@]1(C)O[C@@H]21
Result: 42.9

Ask: Query (molecule): CCCCCCCCCCCC(=O)OCCNC(=O)C[n+]1ccccc1 ; field requested: growth
Result: 101

Ask: Consider the molecule O=C1c2ccccc2C(=O)c2c1ccc(C(Br)Br)c2[N+](=O)[O-] and give its measured growth.
Result: -66.5

Ask: Which growth is reported for this molecule? CO[C@H]1/C=C/O[C@@]2(C)Oc3c(C)c(O)c4c(O)c(c(/C=N/N5C(C)CN(Cc6ccccc6)CC5C)c(O)c4c3C2=O)NC(=O)/C(C)=C\C=C\[C@H](C)[C@H](O)[C@@H](C)[C@@H](O)[C@@H](C)[C@H](OC(C)=O)[C@@H]1C (some centres undefined)
Result: 65.1

Ask: What value of growth has been reported for the following molecule? Cn1c(NCCc2ccc(O)c(O)c2)nc2c1c(=O)n(Cc1ccc(Br)cc1)c(=O)n2C
Result: 43.3

====

system: MDA-MB-468 breast; experiment: NCI-60 one-dose screen, 48 h (100 = growth as untreated, 0 = no growth, -100 = all killed); conditions: 10 µM unless noted
The panel holds about 83,000 compounds, 20% with a hit somewhere; the sample as a whole holds those more often.
Please respond with reported growth for every item in the list.
Entry rule: numbers only, all in %.

Ask: # growth lookup, item CC(C)c1ccc(/C=N/N=C(N)N)cc1
Result: 35.3

Ask: If you can, please state the reported growth value of CSc1nn2c(-c3cc4cc(Br)ccc4oc3=O)ccnc2c1C#N .
Result: 109

Ask: Look up growth: COc1cc(C(=O)c2cnc(-c3ccc4cc[nH]c4c3)[nH]2)cc(OC)c1OC
Result: -23.2

Ask: Please look up its growth: CCOC(=O)c1sc(NC(=O)CN2CCC(Cc3ccccc3)CC2)nc1C
Result: 98.5

Ask: Field request: growth | item: Cc1ccc(S(=O)(=O)NCCCNc2nccc(-c3c(-c4cccc(F)c4)nc4occn34)n2)cc1
Result: 55.6
